Biological target: 5-hydroxytryptamine receptor 5A (Homo sapiens) (UniProt P47898)
Sequence (P47898 whole entry, looked up): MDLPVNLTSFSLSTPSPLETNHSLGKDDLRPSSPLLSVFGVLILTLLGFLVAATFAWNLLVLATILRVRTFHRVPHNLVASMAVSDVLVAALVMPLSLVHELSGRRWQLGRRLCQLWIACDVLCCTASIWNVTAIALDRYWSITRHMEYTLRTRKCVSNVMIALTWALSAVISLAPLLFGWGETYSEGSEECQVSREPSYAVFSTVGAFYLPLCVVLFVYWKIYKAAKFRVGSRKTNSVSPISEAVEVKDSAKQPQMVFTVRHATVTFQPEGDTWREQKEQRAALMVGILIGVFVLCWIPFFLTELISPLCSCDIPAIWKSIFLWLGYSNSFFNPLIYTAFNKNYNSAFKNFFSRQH
Test: activation of human 5-HT5A receptor – cell-based, luminescence, full-deck HTS, counter-screen for OPRM1-OPRD1 heterodimer agonist project, primary screen (AID 504692);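 further: 0% = cells with vehicle only and 100% = reference agonist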
Details: HTR5A agonist assay, at 9.3 µM
Hit rate of the full screen: of about 340,000 compounds, about 2,000 (0.59%) were called active. No stated cut-off is given here; in the data, active means activation mostly above about 9.5% (no sharp cut-off); inactive means mostly below about 7.6%. For the sample, actives were picked, then their nearest neighbours and some compounds at random.
Labels: active, inactive

- entry smiles: "Cc1nc2ccccc2c(C(=O)O)c1-c1ccccn1"
  group label: "inactive"
- entry smiles: "Cc1ccc(Cc2cnc(N)s2)o1"
  group label: "inactive"
- entry smiles: "COc1ccc(/C=C(\\C#N)c2c[nH]c3ccccc23)cc1"
  group label: "active"
- entry smiles: "CCOc1ccc(NC(=O)c2cc(C)nc3ccccc23)cc1"
  group label: "inactive"

----------
Recorded activation, one value per entry.
Biological target: 5-hydroxytryptamine receptor 5A (Homo sapiens) (UniProt P47898)
Assay: activation of human 5-HT5A receptor – cell-based, luminescence, full-deck HTS, counter-screen for OPRM1-OPRD1 heterodimer agonist project, primary screen (AID 504692);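 further: 0% = cells with vehicle only and 100% = reference agonist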
Settings: HTR5A agonist assay, at 9.3 µM, stronger effect = higher value
The whole screen tested about 340,000 compounds, of which about 2,000 (0.59%) were called active. This is one part of a sample in which actives are shown more often than they occur.

- compound: "CCCOc1ccc(/C=N/NC(=O)C2CC2)c(OCCC)c1"
  unit: "%"
  activation: 4.85
- compound: "CN(Cc1cnccn1)C(=O)c1cc(COc2cccc(C(F)(F)F)c2)on1"
  unit: "%"
  activation: 0.68
- compound: "CCCOc1ccc(C(=O)CCC(=O)OC(C)C(=O)Nc2ccc(NC(C)=O)cc2)cc1 (stereo unspecified)"
  unit: "%"
  activation: 2.99
- compound: "COc1cccc(CCNC(=O)COc2cccc3c2OC(C)(C)C3)c1"
  unit: "%"
  activation: 10.4
- compound: "COc1ccc(C2CC(c3cccs3)=Nc3ccccc3S2)cc1OC (stereo unspecified)"
  unit: "%"
  activation: 0.29
- compound: "CCOc1cc(N2CCOCC2)c(OCC)cc1NC(=O)c1cc(C)nc2ccccc12"
  unit: "%"
  activation: 14.2
- compound: "COc1ccc(NC(=O)CN2C(=O)CSC2=O)cc1"
  unit: "%"
  activation: -1
- compound: "Cc1ccc(CNC(=O)[C@@H](NC(=O)Cc2ccccc2)C(C)C)cc1"
  unit: "%"
  activation: -1.89
- compound: "CC1(C)Cc2cccc(OCC(N)=O)c2O1"
  unit: "%"
  activation: -7.5
- compound: "Cc1ccc(CN2CCN(Cc3cn(C)nc3-c3ccccc3)CC2CCO)o1 (stereo unspecified)"
  unit: "%"
  activation: -1.42
- compound: "Cc1ccc2c(C)c(C(=O)N3CCC(N4CCC(C(=O)NC5CC5)CC4)CC3)oc2c1"
  unit: "%"
  activation: -4.49

From: PubChem BioAssay AID504692
